Target: T1, hFcRn on hFcRn-expressing HEK293 cells (human, UniProt P55899 24-365; P61769 21-119)
T1 construct: whole, on cells; also called hFcRn HEK293
T1 sequence (P55899 24-365 limits assumed, chain 1 of 2): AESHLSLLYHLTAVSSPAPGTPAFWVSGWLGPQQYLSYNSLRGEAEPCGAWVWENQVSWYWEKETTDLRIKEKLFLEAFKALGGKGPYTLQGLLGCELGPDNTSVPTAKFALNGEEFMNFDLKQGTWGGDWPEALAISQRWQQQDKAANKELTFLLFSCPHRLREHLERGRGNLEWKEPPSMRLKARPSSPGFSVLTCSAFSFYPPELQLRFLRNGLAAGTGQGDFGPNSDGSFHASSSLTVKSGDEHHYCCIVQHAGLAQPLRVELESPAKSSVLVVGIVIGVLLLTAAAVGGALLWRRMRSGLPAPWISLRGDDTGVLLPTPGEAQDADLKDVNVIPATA
T1 sequence (P61769 21-119 limits assumed, chain 2 of 2): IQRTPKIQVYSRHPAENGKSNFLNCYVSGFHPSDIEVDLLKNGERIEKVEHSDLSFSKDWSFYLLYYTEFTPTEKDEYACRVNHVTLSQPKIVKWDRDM
Assay: FACS on hFcRn HEK293 cells, 10 nM antibody, pH 6.0
Attribute: MFI

binder	readoutUnit	MFI
HL161AN variant No. 20 (LC:N25Q, HC:C32Y Q82S) (antibody, human IgG1, V domains shown, Variable domains only) VL: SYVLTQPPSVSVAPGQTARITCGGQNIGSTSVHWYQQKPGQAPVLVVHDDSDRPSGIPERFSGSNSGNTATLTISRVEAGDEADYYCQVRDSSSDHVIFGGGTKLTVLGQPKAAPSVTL VH: EVQLLESGGGLVQPGGSLRLSCAASEFTFGSYVMTWVRQAPGKGLEWVSVISGSGGSTYYADSVKGRFTISRDNSKNTLYLSMNSLRAEDTAVYYCAKTPWWLRSPFFDYWGQGTLVTVSS	MFI	2520
HL161AN variant No. 7 (LC:N25S, HC:C32S Q82T) (antibody, human IgG1, V domains shown, Variable domains only) VL: SYVLTQPPSVSVAPGQTARITCGGSNIGSTSVHWYQQKPGQAPVLVVHDDSDRPSGIPERFSGSNSGNTATLTISRVEAGDEADYYCQVRDSSSDHVIFGGGTKLTVLGQPKAAPSVTL VH: EVQLLESGGGLVQPGGSLRLSCAASEFTFGSSVMTWVRQAPGKGLEWVSVISGSGGSTYYADSVKGRFTISRDNSKNTLYLTMNSLRAEDTAVYYCAKTPWWLRSPFFDYWGQGTLVTVSS	MFI	2550
HL161AN (antibody, human IgG1, V domains shown, also called HL161AN RS) VL: SYVLTQPPSVSVAPGQTARITCGGNNIGSTSVHWYQQKPGQAPVLVVHDDSDRPSGIPERFSGSNSGNTATLTISRVEAGDEADYYCQVRDSSSDHVIFGGGTKLTVLGQPKAAPSVTL VH: EVQLLESGGGLVQPGGSLRLSCAASEFTFGSCVMTWVRQAPGKGLEWVSVISGSGGSTYYADSVKGRFTISRDNSKNTLYLQMNSLRAEDTAVYYCAKTPWWLRSPFFDYWGQGTLVTVSS	MFI	2720
HL161AN variant No. 15 (LC:N25Q, HC:Q82T) (antibody, human IgG1, V domains shown, Variable domains only) VL: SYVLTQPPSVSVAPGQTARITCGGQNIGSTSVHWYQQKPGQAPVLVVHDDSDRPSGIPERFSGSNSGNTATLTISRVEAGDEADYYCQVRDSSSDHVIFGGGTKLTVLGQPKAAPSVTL VH: EVQLLESGGGLVQPGGSLRLSCAASEFTFGSCVMTWVRQAPGKGLEWVSVISGSGGSTYYADSVKGRFTISRDNSKNTLYLTMNSLRAEDTAVYYCAKTPWWLRSPFFDYWGQGTLVTVSS	MFI	2570
HL161AN variant No. 18 (LC:N25Q, HC:C32S Q82T) (antibody, human IgG1, V domains shown, Variable domains only) VL: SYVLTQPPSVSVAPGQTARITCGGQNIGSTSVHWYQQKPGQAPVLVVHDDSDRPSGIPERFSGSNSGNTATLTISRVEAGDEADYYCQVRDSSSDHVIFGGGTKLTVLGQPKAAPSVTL VH: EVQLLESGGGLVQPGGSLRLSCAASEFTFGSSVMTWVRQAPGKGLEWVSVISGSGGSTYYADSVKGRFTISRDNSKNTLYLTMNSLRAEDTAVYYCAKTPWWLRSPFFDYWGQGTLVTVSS	MFI	2520
HL161AN variant No. 16 (LC:N25Q, HC:Q82E) (antibody, human IgG1, V domains shown, Variable domains only) VL: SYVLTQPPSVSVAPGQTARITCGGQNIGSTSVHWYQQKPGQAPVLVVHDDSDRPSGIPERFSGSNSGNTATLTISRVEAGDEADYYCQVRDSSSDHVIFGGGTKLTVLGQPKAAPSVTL VH: EVQLLESGGGLVQPGGSLRLSCAASEFTFGSCVMTWVRQAPGKGLEWVSVISGSGGSTYYADSVKGRFTISRDNSKNTLYLEMNSLRAEDTAVYYCAKTPWWLRSPFFDYWGQGTLVTVSS	MFI	2540
HL161AN variant No. 1 (LC:N25S, HC:C32S) (antibody, V domains shown, also called HL161ANS; #1 (HL161ANS)) VL: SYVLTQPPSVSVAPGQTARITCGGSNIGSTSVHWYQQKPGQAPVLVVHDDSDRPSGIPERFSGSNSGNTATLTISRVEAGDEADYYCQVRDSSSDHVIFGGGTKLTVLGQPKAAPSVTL VH: EVQLLESGGGLVQPGGSLRLSCAASEFTFGSSVMTWVRQAPGKGLEWVSVISGSGGSTYYADSVKGRFTISRDNSKNTLYLQMNSLRAEDTAVYYCAKTPWWLRSPFFDYWGQGTLVTVSS	MFI	2720
HL161AN variant No. 14 (LC:N25Q, HC:Q82S) (antibody, human IgG1, V domains shown, Variable domains only) VL: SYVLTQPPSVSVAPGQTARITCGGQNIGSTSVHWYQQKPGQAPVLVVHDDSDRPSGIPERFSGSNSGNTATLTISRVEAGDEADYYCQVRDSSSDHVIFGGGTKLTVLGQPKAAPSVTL VH: EVQLLESGGGLVQPGGSLRLSCAASEFTFGSCVMTWVRQAPGKGLEWVSVISGSGGSTYYADSVKGRFTISRDNSKNTLYLSMNSLRAEDTAVYYCAKTPWWLRSPFFDYWGQGTLVTVSS	MFI	2590
HL161AN variant No. 5 (LC:N25S, HC:Q82E) (antibody, human IgG1, V domains shown, Variable domains only) VL: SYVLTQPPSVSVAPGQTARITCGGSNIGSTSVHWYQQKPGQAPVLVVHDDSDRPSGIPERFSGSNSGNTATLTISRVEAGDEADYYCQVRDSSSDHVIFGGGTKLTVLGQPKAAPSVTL VH: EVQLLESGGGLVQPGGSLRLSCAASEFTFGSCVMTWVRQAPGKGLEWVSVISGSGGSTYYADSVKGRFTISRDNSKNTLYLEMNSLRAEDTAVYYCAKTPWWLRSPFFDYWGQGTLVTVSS	MFI	2570
HL161AN variant No. 21 (LC:N25Q, HC:C32Y Q82T) (antibody, human IgG1, V domains shown, Variable domains only) VL: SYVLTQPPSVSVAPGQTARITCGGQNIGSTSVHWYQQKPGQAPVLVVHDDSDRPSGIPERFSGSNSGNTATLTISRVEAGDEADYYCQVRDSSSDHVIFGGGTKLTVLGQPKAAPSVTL VH: EVQLLESGGGLVQPGGSLRLSCAASEFTFGSYVMTWVRQAPGKGLEWVSVISGSGGSTYYADSVKGRFTISRDNSKNTLYLTMNSLRAEDTAVYYCAKTPWWLRSPFFDYWGQGTLVTVSS	MFI	2430
